Tested on: Streptococcus pneumoniae
Assay: Antimicrobial activity against Streptococcus pneumoniae RCMB 010010 assessed as absence of turbidity after 24 hrs
Format: functional
Conditions: RCMB 010010, 24 h
Measurement Name: MIC (µg/mL)

- Cc1noc(NS(=O)(=O)c2ccc(N)cc2)c1C: 1.95
- COc1ccc(-c2c(C#N)c(N)n(-c3ccc(S(=O)(=O)Nc4onc(C)c4C)cc3)c(=O)c2C#N)cc1: 0.98
- Cc1noc(NS(=O)(=O)c2ccc(NC(=O)c3cn[nH]c3N)cc2)c1C: 7.81
- CC1(C)S[C@@H]2[C@H](NC(=O)[C@H](N)c3ccccc3)C(=O)N2[C@H]1C(=O)O: 0.12
- Cc1noc(NS(=O)(=O)c2ccc(NC(=O)/C(C#N)=C/c3cccnc3)cc2)c1C: 0.06
